# System: BT-549
# Experiment: normalised response (% of control), CellTiter-Glo; higher = more viable cells (100 = DMSO, 0 = benzethonium chloride kill control)
# Run Conditions: incubation time: 72 h
Readout: normalised response (%)
Answers are plain numbers, in %.

Known results for compounds:
COc1cc(O)c2c(c1)/C=C/C[C@H](O)[C@H](O)C(=O)/C=C\C[C@H](C)OC2=O [(5Z)-7-Oxozeaenol] (1 nM) :: 109
c1ccc2c(CCNc3ccc(Nc4ccncc4)cc3)c[nH]c2c1 [Serdemetan] (1000 nM) :: 84.2

Please fill in: normalised response reported for N#Cc1ccc(COC[C@H]2O[C@@H](n3c(NCc4ccc(Cl)c(Cl)c4)nc4c(N)ncnc43)[C@H](O)[C@@H]2O)cc1 (1 nM) = 99.8
